# Tested on: NCI/ADR-RES
# Method: Anticancer activity against human NCI/ADR-RES cells assessed as cell growth inhibition incubated for 48 hrs by SRB assay
# Type: functional

Compound structure string | Scale unit | GI50
COc1cc2cc(Oc3ccc(NC(=O)Nc4ccc(Cl)c(C(F)(F)F)c4)cc3)c(C)nc2cc1OCCN1CCOCC1 | µM | 2.34
CNC(=O)c1cc(Oc2ccc(NC(=O)Nc3ccc(Cl)c(C(F)(F)F)c3)cc2)ccn1 | µM | 2.51
COc1cc2cc(Oc3ccc(NC(=O)Nc4ccc(F)c(C(F)(F)F)c4)cc3)c(C)nc2cc1OCCN1CCOCC1 | µM | 2.56
COc1cc2cc(Oc3ccc(NC(=O)Nc4cc(C(F)(F)F)cc(C(F)(F)F)c4)cc3)c(C)nc2cc1OCCN1CCOCC1 | µM | 1.59

// data source = ChEMBL document CHEMBL5113398
